Source listed as the supplement of paper PMC10567573.

B1: INTS4 (parent)
chain: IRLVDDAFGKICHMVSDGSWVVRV

Variants of: B1
procedure-text: protein stability index of a GFP-peptide fusion (GPS, HEK-293T) (PSI 1-6); higher = more stable;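 further: lentivirally expressed fusions sorted by FACS into six bins by GFP to DsRed ratio, PSI derived from sequencing read proportions per bin multiplied by bin number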
experimental-conditions: c terminus: a fixed tail appended
Label rule, in plain words: protein stability index of 2 and up is Fulfilled, under 2 is Not fulfilled.

Please tell me: is the variant IRIVDDAFGKICHMVSDGSWVVRV at or over 2 in terms of protein stability index?
Fulfilled

Hello, I need to know if IRLVDDAFGKICHMVSDGSWHVRV has measured protein stability index not below 2. Thanks!
Fulfilled

Say whether IRLVDDAFGKICHTVSDGSWVVRV shows protein stability index of 2 or more.
Fulfilled

Is protein stability index for IRLVDDAFGKIGHMVSDGSWVVRV at or above 2?
Fulfilled

Given the entry IRLVDDAFGKICHMVSDGSDVVRV , answer whether its protein stability index meets or surpasses 2.
Not fulfilled

Can IRLVDDAFKKICHMVSDGSWVVRV be said to have protein stability index at or above 2?
Not fulfilled

Is reported protein stability index greater than or equal to 2 here: IRLVDDAYGKICHMVSDGSWVVRV
Fulfilled

Quick check: does IRLVDDAFGNICHMVSDGSWVVRV have protein stability index greater than or equal to 2?
Not fulfilled

Determine whether measured protein stability index meets or exceeds 2 for IRLVDDAFGKICHMVSDGHWVVRV
Fulfilled

Determine whether this variant has protein stability index no lower than 2: IRLVDDAFGKICHMVSDYSWVVRV
Not fulfilled

Dear colleague, could you confirm whether IRLVDDAFGGICHMVSDGSWVVRV has protein stability index at or above 2?
Fulfilled
